# experiment.description: Hemolytic activity against human erythrocytes at 10 uM measured after 4 hrs
# Assay type: toxicity, cell-based, Erythrocyte
# experimental.parameters: read-out: Activity
# reported hemolysis at 4 h, 10 µM; entries follow

CC[C@@]1(OC(=O)CCC(=O)NCCCC[C@@H](NC(=O)CCC(=O)O[C@]2(CC)C(=O)OCc3c2cc2n(c3=O)Cc3cc4ccccc4nc3-2)C(=O)NCCOCCOCC(=O)N[C@H](CCCCN)C(=O)N[C@H](CCCCN)C(=O)N[C@H](Cc2c[nH]c3ccccc23)C(=O)N[C@H](Cc2c[nH]c3ccccc23)C(=O)N[C@H](CCCCN)C(=O)N[C@H](CCCCN)C(=O)N[C@H](Cc2c[nH]c3ccccc23)C(=O)N[C@@H](C(=O)N[C@H](CCCCN)C(N)=O)C(c2ccccc2)c2ccccc2)C(=O)OCc2c1cc1n(c2=O)Cc2cc3ccccc3nc2-1 | > 80%

Now for the compound whose hemolysis at 4 h, 10 µM we want.
stdin: Output hemolysis at 4 h, 10 µM of `CC[C@@]1(OC(=O)CCC(=O)NCCCC[C@H](NC(=O)CCC(=O)O[C@]2(CC)C(=O)OCc3c2cc2n(c3=O)Cc3cc4ccccc4nc3-2)C(=O)NCCOCCOCC(=O)N[C@@H](CCCCN)C(=O)N[C@@H](CCCCN)C(=O)N[C@@H](Cc2c[nH]c3ccccc23)C(=O)N[C@@H](Cc2c[nH]c3ccccc23)C(=O)N[C@@H](CCCCN)C(=O)N[C@@H](CCCCN)C(=O)N[C@@H](Cc2c[nH]c3ccccc23)C(=O)N[C@H](C(=O)N[C@@H](CCCCN)C(N)=O)C(c2ccccc2)c2ccccc2)C(=O)OCc2c1cc1n(c2=O)Cc2cc3ccccc3nc2-1`
stdout: > 80%

----------
# reported Ratio IC50; entries follow
# experiment.description: Selectivity index, ratio of IC50 for human MRC5 cells to IC50 for mouse A20 cells
Non-standard residues stand in square brackets, D forms with d. Residues, ends and D or L forms follow the SMILES beside them. *: point of attachment. Dip = N[C@H](C(=O)O)C(c1ccccc1)c1ccccc1; NHNH2 = NN*
Note: the reply should be a number with no unit written.

stdin: Output Ratio IC50 of `CC[C@@]1(OC(=O)CCC(=O)NCCCC[C@@H](NC(=O)CCC(=O)O[C@]2(CC)C(=O)OCc3c2cc2n(c3=O)Cc3cc4ccccc4nc3-2)C(=O)NCCOCCOCC(=O)N[C@H](CCCCN)C(=O)N[C@H](CCCCN)C(=O)N[C@H](Cc2c[nH]c3ccccc23)C(=O)N[C@H](Cc2c[nH]c3ccccc23)C(=O)N[C@H](CCCCN)C(=O)N[C@H](CCCCN)C(=O)N[C@H](Cc2c[nH]c3ccccc23)C(=O)N[C@@H](C(=O)N[C@H](CCCCN)C(N)=O)C(c2ccccc2)c2ccccc2)C(=O)OCc2c1cc1n(c2=O)Cc2cc3ccccc3nc2-1`
stdout: 37.3

stdin: Output Ratio IC50 of `CC[C@@]1(OC(=O)CCC(=O)NCCOCCOCC(=O)N[C@@H](CCCCN)C(=O)N[C@@H](CCCCN)C(=O)N[C@@H](Cc2c[nH]c3ccccc23)C(=O)N[C@@H](Cc2c[nH]c3ccccc23)C(=O)N[C@@H](CCCCN)C(=O)N[C@@H](CCCCN)C(=O)N[C@@H](Cc2c[nH]c3ccccc23)C(=O)N[C@H](C(=O)N[C@@H](CCCCN)C(N)=O)C(c2ccccc2)c2ccccc2)C(=O)OCc2c1cc1n(c2=O)Cc2cc3ccccc3nc2-1`
stdout: 4.9

stdin: Output Ratio IC50 of `CC[C@@]1(OC(=O)CCC(=O)NCCCC[C@H](NC(=O)CCC(=O)O[C@]2(CC)C(=O)OCc3c2cc2n(c3=O)Cc3cc4ccccc4nc3-2)C(=O)NCCOCCOCC(=O)N[C@@H](CCCCN)C(=O)N[C@@H](CCCCN)C(=O)N[C@@H](Cc2c[nH]c3ccccc23)C(=O)N[C@@H](Cc2c[nH]c3ccccc23)C(=O)N[C@@H](CCCCN)C(=O)N[C@@H](CCCCN)C(=O)N[C@@H](Cc2c[nH]c3ccccc23)C(=O)N[C@H](C(=O)N[C@@H](CCCCN)C(N)=O)C(c2ccccc2)c2ccccc2)C(=O)OCc2c1cc1n(c2=O)Cc2cc3ccccc3nc2-1`
stdout: 17.9

stdin: Output Ratio IC50 of `NCCCC[C@@H](N)C(=O)N[C@H](CCCCN)C(=O)N[C@H](Cc1c[nH]c2ccccc12)C(=O)N[C@H](Cc1c[nH]c2ccccc12)C(=O)N[C@H](CCCCN)C(=O)N[C@H](CCCCN)C(=O)N[C@H](Cc1c[nH]c2ccccc12)C(=O)N[C@@H](C(=O)N[C@H](CCCCN)C(=O)NN)C(c1ccccc1)c1ccccc1`
stdout: 13.1

stdin: Output Ratio IC50 of CC(=O)N[C@@H](CCCCN)C(=O)N[C@@H](CCCCN)C(=O)N[C@@H](Cc1c[nH]c2ccccc12)C(=O)N[C@@H](Cc1c[nH]c2ccccc12)C(=O)N[C@@H](CCCCN)C(=O)N[C@@H](CCCCN)C(=O)N[C@@H](Cc1c[nH]c2ccccc12)C(=O)N[C@H](C(=O)N[C@@H](CCCCN)C(=O)NN)C(c1ccccc1)c1ccccc1 (Ac-KKWWKKW[Dip]K-NHNH2)
stdout: 16.2
